Please respond with reported IC50 for every item in the list.
- study system: 5α-Reductase of Rat Liver Microsomes (Rattus norvegicus)
- protocol notes: [3H]4-MA binding assay, rat liver microsomes (tea catechins)
- test context: type 1 5α-reductase of rat liver microsomes; read-out: IC50
Numbers only, in µM.

Batch request: IC50 for each of the following compounds.
1. O=C(O[C@@H]1Cc2c(O)cc(O)cc2O[C@@H]1c1ccc(O)c(O)c1)c1cc(O)c(O)c(O)c1 [ECG, (-)Epicatechin-3-gallate]
2. O=C(O[C@H]1Cc2c(O)cc(O)cc2O[C@@H]1c1ccc(O)c(O)c1)c1cc(O)c(O)c(O)c1 [CG, (-)Catechin-3-gallate]

Response:
1: 12; 2: 18

----------
Please respond with reported inhibition at 200 µM for every item in the list.
- study system: 5α-Reductase of Rat Liver Microsomes (Rattus norvegicus)
- Sequence (P24008 1-259): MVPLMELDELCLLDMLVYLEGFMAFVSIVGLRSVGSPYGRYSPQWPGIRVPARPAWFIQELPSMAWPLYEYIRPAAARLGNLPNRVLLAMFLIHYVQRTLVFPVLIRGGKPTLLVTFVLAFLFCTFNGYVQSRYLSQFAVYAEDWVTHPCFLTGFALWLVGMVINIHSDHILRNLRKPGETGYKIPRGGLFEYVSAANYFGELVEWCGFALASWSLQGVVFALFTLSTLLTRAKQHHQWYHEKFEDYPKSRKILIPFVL
- protocol notes: biochemical
- test context: read-out: % Inhibition of [^3 H]4-MA binding, Table 2, 200 μM
Answers are plain numbers, in %.

Illustrative cases are given below, each with its answer.
                                   compound                              study_system         endpoint_name  unit_spec  reported_result
0   CCCCC/C=C\C/C=C\C/C=C\C/C=C\CCCCCC(=O)O  5α-Reductase of Rat Liver Microsomes (Rattus norvegicus)  inhibition at 200 µM          %               79
1  CCCCC/C=C\C/C=C\CCCCCCCCCCCC(=O)O [13,16-Docosadienoic Acid, 13,16-docosadienoic acid]  5α-Reductase of Rat Liver Microsomes (Rattus norvegicus)  inhibition at 200 µM          %               93

Batch request: inhibition at 200 µM for each of the following compounds.
1. CCCCCC/C=C\CCCCCCCCCCC(=O)O [12-cis-Nonadecenoic Acid, 12-nonadecenoic acid]
2. CCCCC/C=C\C/C=C\CCCCCCCCCC(=O)O [11,14-cis-Eicosadienoic Acid, 11,14 eicosadienoic acid]
3. CCCCCC/C=C/CCCCCCCCCC(=O)O [trans-Vaccenic Acid]
4. CC/C=C\C/C=C\C/C=C\CCCCCCCCCCCC(=O)O [13,16,19-Docosatrienoic Acid, 13,16,19-docosatrienoic acid]
5. CCCCCCCCCCC/C=C\CCCCC(=O)O [Petroselinic acid]
6. CCCCC/C=C\C/C=C\CCCCCCCC(=O)O [Linoleic acid]
7. CCCCCC/C=C\CCCCCCCCCC(=O)O [11-Octadecenoic Acid, 11-octadecenoic acid]

Response:
1. 91
2. 89
3. 39
4. 65
5. 52
6. 86
7. 81

Batch request: inhibition at 200 µM for each of the following compounds.
1. CC/C=C\C/C=C\C/C=C\CCCCCCCCCC(=O)O [11,14,17-cis-Eicosatrienoic Acid, 11,14,17-eicosatrienoic acid]
2. CCCCCC/C=C\CCCCCCCCC(=O)O [10-cis-Heptadecenoic Acid, 10-heptadecenoic acid]
3. CCCCC/C=C/C/C=C/CCCCCCCC(=O)O [Linolelaidic acid]
4. CCCCCCCC/C=C/CCCCCCCCC(=O)O [10-trans-Nonadecenoic Acid, 10-trans nonadecenoic acid]

Response:
1. 94
2. 84
3. 19
4. 32

----------
- study system: 5α-Reductase of Rat Liver Microsomes (Rattus norvegicus)
- protocol notes: biochemical
- test context: read-out: % Inhibition of [^3 H]4-MA binding, Table 2, 200 μM
Give Criterion met when the value for inhibition at 200 µM is at least 80%. Give Criterion not met when it is less.

Record excerpt, results attached:
In [3]: df
Out[3]:
                                   compound              label
0                   CCCC/C=C\CCCCCCCCC(=O)O  Criterion not met
1  CCCCC/C=C\C/C=C\C/C=C\CCCCC(=O)OCC(O)CO (stereo not shown)      Criterion met
2          CC/C=C\C/C=C\C/C=C\CCCCCCCC(=O)O      Criterion met
3             CCCCCCCC/C=C\CCCCCCCCCCC(=O)O  Criterion not met
4                CCCCCCCC/C=C\CCCCCCCC(=O)O  Criterion not met
5              CCCCCCCC/C=C\CCCCCCCCCC(=O)O  Criterion not met
6  CCCCCC/C=C/CCCCCCCCC(=O)O [10-trans-Heptadecenoic Acid, 10-trans-heptadecenoicacid]  Criterion not met
7            CCCCC/C=C\C/C=C\CCCCCCCCC(=O)O      Criterion met

Query: Could you please find out whether CCCCC/C=C\C/C=C\C/C=C\C/C=C\CCCC(=O)O has inhibition at 200 µM that meets 80% or exceeds it?
Response: Criterion met

Query: Could you please find out whether CCCCCCCCCCCCCCCCCC(=O)O has inhibition at 200 µM that meets 80% or exceeds it?
Response: Criterion not met

Query: Could you please find out whether CCCCC/C=C\C/C=C\C/C=C\CCCCC(=O)Cl [γ-Linolenoyl Chloride, γ-linolenoyl chloride] has inhibition at 200 µM that meets 80% or exceeds it?
Response: Criterion not met

Query: Could you please find out whether CCCCC/C=C\C/C=C\C/C=C\CCCCCO has inhibition at 200 µM that meets 80% or exceeds it?
Response: Criterion not met

Query: Could you please find out whether CCCCC/C=C\C/C=C\CCCCCCCCCC(=O)OC [11,14-cis-Eicosadienoate, methyl 11,14 eicosadienoate] has inhibition at 200 µM that meets 80% or exceeds it?
Response: Criterion not met

Query: Could you please find out whether CCCCCCCC/C=C\CCCCCCCCCCCCCC(=O)O has inhibition at 200 µM that meets 80% or exceeds it?
Response: Criterion not met

Query: Could you please find out whether CC/C=C\C/C=C\C/C=C\CCCCCCCCCC(=O)Cl [11,14,17-cis-Eicosatrienoyl Chloride, 11,14,17-eicosatrienoyl chloride] has inhibition at 200 µM that meets 80% or exceeds it?
Response: Criterion not met

Query: Could you please find out whether CCCCCCCCCCCCCCCC(=O)O has inhibition at 200 µM that meets 80% or exceeds it?
Response: Criterion not met

Query: Could you please find out whether CCCCCCCC/C=C\CCCCCCCCCCCC(=O)O has inhibition at 200 µM that meets 80% or exceeds it?
Response: Criterion not met

----------
- study system: human 5α-reductase isozyme type 1 (Homo sapiens, UniProt P18405)
- Construct: expressed in transfected cells; host or cells: Rat-1A cells infected with pMV7 retrovirus; microsomes of these cells
- Sequence (P18405 whole entry): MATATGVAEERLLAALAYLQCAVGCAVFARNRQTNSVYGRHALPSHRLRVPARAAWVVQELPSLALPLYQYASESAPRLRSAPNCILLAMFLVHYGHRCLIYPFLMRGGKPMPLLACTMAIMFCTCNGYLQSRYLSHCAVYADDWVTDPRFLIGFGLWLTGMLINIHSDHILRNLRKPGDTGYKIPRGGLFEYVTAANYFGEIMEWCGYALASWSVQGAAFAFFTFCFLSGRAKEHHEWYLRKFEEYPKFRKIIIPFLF
- protocol notes: [3H]4-MA binding, human type 1 isozyme expressed in Rat-1A cells
- test context: read-out: % Inhibition of [^3 H]4-MA binding
endpoint name: inhibition at 10 µM (%)
One number for each entry, in %.

Illustrative cases are given below, each with its answer.
>>> df
                                   molecule                              study_system  reported_result
0  O=C(O[C@@H]1Cc2c(O)cc(O)cc2O[C@@H]1c1ccc(O)c(O)c1)c1cc(O)c(O)c(O)c1 [ECG, (-)Epicatechin-3-gallate]  human 5α-reductase isozyme type 1 (Homo sapiens, UniProt P18405)               79
1  O=C(O[C@@H]1Cc2c(O)cc(O)cc2O[C@@H]1c1cc(O)c(O)c(O)c1)c1cc(O)c(O)c(O)c1 [EGCG, (-)Epigallocatechin-3-gallate]  human 5α-reductase isozyme type 1 (Homo sapiens, UniProt P18405)               77

Query: Give its inhibition at 10 µM value. Item: CCCCC/C=C\C/C=C\C/C=C\CCCCC(=O)O [γ-Linolenic acid, γ-linolenic acid]
Response: 65

----------
- study system: human 5α-reductase isozyme type 2 (Homo sapiens, UniProt P31213)
- Construct: expressed in transfected cells; host or cells: Rat-1A cells infected with pMV7 retrovirus; microsomes of these cells
- Sequence (P31213 1-254): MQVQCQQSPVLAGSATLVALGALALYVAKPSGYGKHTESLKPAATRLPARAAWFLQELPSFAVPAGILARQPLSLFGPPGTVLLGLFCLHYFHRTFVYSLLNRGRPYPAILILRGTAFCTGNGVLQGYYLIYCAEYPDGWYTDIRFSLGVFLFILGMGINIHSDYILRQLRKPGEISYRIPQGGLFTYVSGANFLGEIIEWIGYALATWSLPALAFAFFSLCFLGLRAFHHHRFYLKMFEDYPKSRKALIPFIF
- protocol notes: 4-[14C]testosterone reduction, human type 2 isozyme
- Type: biochemical
- test context: read-out: % Inhibition of 5α-reduction
endpoint name: inhibition at 30 µM

Illustrative cases are given below, each with its answer.
In [3]: df
Out[3]:
                                   compound  reported_result
0  O=C(O[C@@H]1Cc2c(O)cc(O)cc2O[C@@H]1c1ccc(O)c(O)c1)c1cc(O)c(O)c(O)c1 [ECG, (-)Epicatechin-3-gallate]            < 10%
1  Oc1cc(O)c2c(c1)O[C@H](c1cc(O)c(O)c(O)c1)[C@H](O)C2 [EGC, (-)Epigallocatechin]            < 10%
2          CCCCC/C=C\C/C=C\C/C=C\CCCCC(=O)O              88%

Here is another compound to look at.
Query: Give its inhibition at 30 µM value. Item: O=C(O[C@@H]1Cc2c(O)cc(O)cc2O[C@@H]1c1cc(O)c(O)c(O)c1)c1cc(O)c(O)c(O)c1 [EGCG, (-)Epigallocatechin-3-gallate]
Response: < 10%
